Target: hERG channel (Homo sapiens)
Construct: purchased Invitrogen PV5365
Sequence (Q12809 whole entry): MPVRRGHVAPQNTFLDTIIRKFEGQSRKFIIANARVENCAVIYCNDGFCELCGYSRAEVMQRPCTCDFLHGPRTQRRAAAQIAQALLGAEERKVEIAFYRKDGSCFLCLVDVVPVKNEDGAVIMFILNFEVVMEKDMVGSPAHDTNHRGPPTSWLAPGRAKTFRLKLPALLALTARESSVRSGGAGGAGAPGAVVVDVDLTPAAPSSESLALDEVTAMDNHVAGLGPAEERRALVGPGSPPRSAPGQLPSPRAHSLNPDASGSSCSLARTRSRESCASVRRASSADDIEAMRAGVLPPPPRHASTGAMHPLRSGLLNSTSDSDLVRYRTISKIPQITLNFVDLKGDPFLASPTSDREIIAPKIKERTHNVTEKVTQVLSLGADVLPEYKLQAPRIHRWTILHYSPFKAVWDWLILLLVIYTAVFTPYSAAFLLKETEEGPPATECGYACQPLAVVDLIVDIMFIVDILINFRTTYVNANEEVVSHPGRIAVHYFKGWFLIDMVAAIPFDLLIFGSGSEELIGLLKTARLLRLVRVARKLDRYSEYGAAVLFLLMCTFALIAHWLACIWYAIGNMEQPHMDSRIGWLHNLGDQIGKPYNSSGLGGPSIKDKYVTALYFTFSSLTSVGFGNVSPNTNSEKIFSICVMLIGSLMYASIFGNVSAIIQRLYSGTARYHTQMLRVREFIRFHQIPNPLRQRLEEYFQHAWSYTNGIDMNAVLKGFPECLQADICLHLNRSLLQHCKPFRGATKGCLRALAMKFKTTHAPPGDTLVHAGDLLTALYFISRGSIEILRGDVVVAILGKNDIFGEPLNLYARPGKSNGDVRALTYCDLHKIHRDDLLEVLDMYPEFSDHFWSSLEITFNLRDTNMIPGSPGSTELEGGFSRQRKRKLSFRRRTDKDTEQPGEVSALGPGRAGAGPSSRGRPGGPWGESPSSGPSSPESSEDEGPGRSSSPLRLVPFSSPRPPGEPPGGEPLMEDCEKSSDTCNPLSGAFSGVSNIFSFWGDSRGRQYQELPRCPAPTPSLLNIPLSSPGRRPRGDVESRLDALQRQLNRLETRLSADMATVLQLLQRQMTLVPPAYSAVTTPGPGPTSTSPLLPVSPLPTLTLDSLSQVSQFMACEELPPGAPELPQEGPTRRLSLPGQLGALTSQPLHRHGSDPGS
Assay: hERG channel binding assay (fluorescence polarization)
Settings: human, Invitrogen hERG Fluorescence Polarization Assay kit (PV5365)
measuredEndpoint: pIC50
The read-out pIC50 is expressed as -log10 of concentration in moles per litre.

Query: Return pIC50 for the following compound: `CN1CCN(CCCOC(=O)c2c3c(c4ccccc4c2O)OC(C)(C)C=C3)CC1`
Result: 5.30

Query: Return pIC50 for the following compound: `CN1CCN(CCOC(=O)c2c3c(c4ccccc4c2O)OC(C)(C)C=C3)CC1`
Result: 5.52

====

Molecular target: hERG channel (Homo sapiens)
Construct: purchased Invitrogen PV5365
Test: hERG channel binding assay (fluorescence polarization)
Procedure: hERG channel binding assay was performed using Invitrogen’s hERG Fluorescence Polarization Assay kit (PV5365) with Synergy Neo plate reader (BioTek, Winooski, VT, USA). The binding assay was carried out according to the kit manufacturer’s instructions.
measuredEndpoint: IC50

Query: Specify the recorded IC50 for CN1CCC(OC(=O)c2c3c(c4ccccc4c2O)OC(C)(C)C=C3)CC1 [6g] , system: hERG channel (Homo sapiens).
Result: > 10 µM

Query: Specify the recorded IC50 for CN1CCN(CCCOC(=O)c2c3c(c4ccccc4c2O)OC(C)(C)C=C3)CC1 [6i] , system: hERG channel (Homo sapiens).
Result: 5.3 µM

Query: Specify the recorded IC50 for CC1(C)C=Cc2c(C(=O)OCCCN3CCOCC3)c(O)c3ccccc3c2O1 [6e] , system: hERG channel (Homo sapiens).
Result: > 10 µM

Query: Specify the recorded IC50 for CN1CCC[C@@H]1COC(=O)c1c2c(c3ccccc3c1O)OC(C)(C)C=C2 [6f] , system: hERG channel (Homo sapiens).
Result: > 10 µM

Query: Specify the recorded IC50 for CC1(C)C=Cc2c(C(=O)OCCN3CCOCC3)c(O)c3ccccc3c2O1 [6d] , system: hERG channel (Homo sapiens).
Result: > 10 µM

Query: Specify the recorded IC50 for COC(=O)c1c2c(c3ccccc3c1O)OC(C)(C)C=C2 [compound 1, mollugin] , system: hERG channel (Homo sapiens).
Result: > 10 µM

Query: Specify the recorded IC50 for CN1CCN(CCOC(=O)c2c3c(c4ccccc4c2O)OC(C)(C)C=C3)CC1 [6h] , system: hERG channel (Homo sapiens).
Result: 3.3 µM
